Target of assay: T1, ZNRF1^CTD (C-terminal domain of ZNRF1, residues 139–227) (UniProt Q8ND25 139-227)
T1 construct: ZNRF1, RING E3 ubiquitin ligase, residues 139-227 of the full-length protein (ZnF and RING domains); also called ZNRF1 C-terminal domain; ZRNF1^CTD; source: E. coli Rossetta2 (DE3), purified (HisTrap, SEC)
T1 sequence (looked up): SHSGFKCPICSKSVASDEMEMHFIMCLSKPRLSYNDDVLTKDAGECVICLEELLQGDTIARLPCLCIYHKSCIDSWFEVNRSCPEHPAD
Test method notes: ITC; ZNRF1 construct (10–30 µM) in the cell, E2 in the syringe; 25°C; 20 mM sodium phosphate pH 8.0, 150 mM NaCl; single site model
Reported conditions: both partners purified
Readings of dH for the listed binders
Dear colleague, please return just the value in kcal/mol, with no unit written.

| Binder | Measurement kind | Unit symbol | Quantitative readout |
| --- | --- | --- | --- |
| Ube2N^R14E (enzyme, UniProt P61088 1-152, looked up, Ube2N, ubiquitin-conjugating enzyme E2 N, with R14E; source: E. coli Rossetta2 (DE3), purified (ion exchange, SEC)) MAGLPRRIIKETQELLAEPVPGIKAEPDESNARYFHVVIAGPQDSPFEGGTFKLELFLPEEYPMAAPKVRFMTKIYHPNVDKLGRICLDILKDKWSPALQIRTVLLSIQALLSAPNPDDPLANDVAEQWKTNEAQAIETARAWTRLYAMNNI | dH | kcal/mol | -8.54 |
| Ube2N^R14A (enzyme, UniProt P61088 1-152, looked up, Ube2N, ubiquitin-conjugating enzyme E2 N, with R14A; source: E. coli Rossetta2 (DE3), purified (ion exchange, SEC)) MAGLPRRIIKETQALLAEPVPGIKAEPDESNARYFHVVIAGPQDSPFEGGTFKLELFLPEEYPMAAPKVRFMTKIYHPNVDKLGRICLDILKDKWSPALQIRTVLLSIQALLSAPNPDDPLANDVAEQWKTNEAQAIETARAWTRLYAMNNI | dH | kcal/mol | -8.69 |

Next up:
For the binder shown here, Ube2N^A98T (enzyme, UniProt P61088 1-152, looked up, Ube2N, ubiquitin-conjugating enzyme E2 N, with A98T; source: E. coli Rossetta2 (DE3), purified (ion exchange, SEC)) MAGLPRRIIKETQRLLAEPVPGIKAEPDESNARYFHVVIAGPQDSPFEGGTFKLELFLPEEYPMAAPKVRFMTKIYHPNVDKLGRICLDILKDKWSPTLQIRTVLLSIQALLSAPNPDDPLANDVAEQWKTNEAQAIETARAWTRLYAMNNI , give the reported dH.
-9.62
